Each recorded value in this set is attributed to ChEMBL document CHEMBL4311942.

experiment_description: Cytotoxicity against mouse RAW264.7 cells assessed as cell survival at < 32 uM after 24 hrs by MTT assay
Assay type: cell-based
protocol_conditions: read-out: Activity
Where a SMILES comes first, the peptide text is derived from it.
Hi there, I'd appreciate the recorded viability at 24 h for every entry that follows.

Solved entries:
compound	viability at 24 h
C[C@@H](O)[C@H](NC(=O)[C@H](CCCNC(=N)N)NC(=O)[C@H](Cc1c[nH]c2ccccc12)NC(=O)[C@H](CCCNC(=N)N)NC(=O)[C@@H](NC(=O)[C@H](CCCNC(=N)N)NC(=O)[C@H](Cc1c[nH]c2ccccc12)NC(=O)[C@H](CCCNC(=N)N)NC(=O)[C@@H](NC(=O)[C@H](CCCNC(=N)N)NC(=O)[C@@H](N)Cc1c[nH]c2ccccc12)[C@@H](C)O)[C@@H](C)O)C(=O)N[C@@H](CCCNC(=N)N)C(N)=O (H-WRTRWRTRWRTR-NH2)	> 90%
CC[C@H](C)[C@H](NC(=O)[C@H](CCCNC(=N)N)NC(=O)[C@H](Cc1c[nH]c2ccccc12)NC(=O)[C@H](CCCNC(=N)N)NC(=O)[C@@H](NC(=O)[C@H](CCCCN)NC(=O)[C@H](Cc1c[nH]c2ccccc12)NC(=O)[C@H](CCCNC(=N)N)NC(=O)[C@@H](NC(=O)[C@H](CCCNC(=N)N)NC(=O)[C@@H](N)Cc1c[nH]c2ccccc12)[C@@H](C)CC)[C@@H](C)O)C(=O)N[C@@H](CCCCN)C(N)=O (H-WRIRWKTRWRIK-NH2)	> 90%

Ask | Quick one: viability at 24 h for C[C@@H](O)[C@H](NC(=O)[C@H](CCCCN)NC(=O)[C@H](Cc1c[nH]c2ccccc12)NC(=O)[C@H](CCCNC(=N)N)NC(=O)[C@H](Cc1ccccc1)NC(=O)[C@H](CCCNC(=N)N)NC(=O)[C@@H](N)Cc1c[nH]c2ccccc12)C(=O)N[C@@H](CCCNC(=N)N)C(=O)N[C@@H](Cc1c[nH]c2ccccc12)C(=O)N[C@@H](CCCNC(=N)N)C(=O)N[C@@H](Cc1ccccc1)C(=O)N[C@@H](CCCCN)C(N)=O (H-WRFRWKTRWRFK-NH2) ?
Reply | > 90%
